- Test system: A673/TR/shEF
- test.details: cell viability (LOESS-normalised, relative to median of negative controls) (log2 ratio); higher = more viable cells (less compound effect), active = hit call of the paper (over 3 MAD below the median)
- measurement.setup: 8.3 µM; library screen: screen3; EWS-FLI1 expression: high (no doxycycline); treatment time: 72 h
Hit rate of the full screen: of about 3,200 compounds, about 300 (9.4%) showed activity. For the sample, actives were picked, then their nearest neighbours and some compounds at random.
Kindly apply the following: T if cell viability (log2) is less than 0.07, F in every other case.

Some solved cases for reference:
- CCCCCCCCCCC[C@@H](C[C@@H]1OC(=O)[C@H]1CCCCCC)OC(=O)[C@H](CC(C)C)NC=O: T
- CCCCC(=O)N(Cc1ccc(-c2ccccc2-c2nn[nH]n2)cc1)[C@H](C(=O)O)C(C)C: T
- CCN(CC)CCNC(=O)c1c(C)[nH]c(/C=C2\C(=O)Nc3ccc(F)cc32)c1C: T
- CC(C(=O)O)c1cccc(C(=O)c2ccccc2)c1 (centres undefined): F
- COc1ccc(Cl)cc1C(=O)NCCc1ccc(S(=O)(=O)NC(=O)NC2CCCCC2)cc1: F
- CCCCCOC(=O)Nc1nc(=O)n([C@@H]2O[C@H](C)[C@@H](O)[C@H]2O)cc1F: F
- CN(Cc1cnc2nc(N)nc(N)c2n1)c1ccc(C(=O)N[C@@H](CCC(=O)O)C(=O)O)cc1: T

Kindly review the next molecule as well.
Field: below-cutoff. Rule: recorded cell viability (log2) strictly less than 0.07. Subject: Cc1cc(Nc2cc(CN3CCOCC3)c3nc(C)c(Cc4ccc(Cl)cc4F)n3n2)n[nH]1
T

Values from the supplement of paper PMC6089552
